- Target Entity: hα6(D199Y) + hβ4 + hβ3 nAChR (Homo sapiens, UniProt P30926+Q15825, D199Y)
- Sequence (Q05901 25-458 partner limits assumed, one chain of several): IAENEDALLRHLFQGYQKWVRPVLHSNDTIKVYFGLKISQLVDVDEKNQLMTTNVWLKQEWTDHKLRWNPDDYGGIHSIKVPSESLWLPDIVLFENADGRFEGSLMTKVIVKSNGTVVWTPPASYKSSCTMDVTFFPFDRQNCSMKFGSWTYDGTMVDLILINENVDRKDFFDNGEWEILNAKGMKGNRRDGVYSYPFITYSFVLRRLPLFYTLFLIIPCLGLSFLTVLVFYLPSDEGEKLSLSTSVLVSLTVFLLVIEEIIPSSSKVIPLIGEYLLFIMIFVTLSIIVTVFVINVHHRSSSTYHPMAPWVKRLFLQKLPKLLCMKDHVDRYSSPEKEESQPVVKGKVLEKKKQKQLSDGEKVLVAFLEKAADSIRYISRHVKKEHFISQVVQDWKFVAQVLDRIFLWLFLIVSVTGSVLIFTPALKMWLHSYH
- Procedure Details: Oocyte two-electrode voltage clamp
pEC50: −log10 of the molar value.

| Molecule | pEC50 |
| --- | --- |
| CN1CCC[C@H]1c1cccnc1 [nicotine, L-nicotine] | 4.96 |

====

- Target Entity: hα6(A184D) + hβ4 + hβ3 nAChR (Homo sapiens, UniProt P30926+Q15825, A184D)
- Sequence (Q15825 26-494 A184D, one chain of several): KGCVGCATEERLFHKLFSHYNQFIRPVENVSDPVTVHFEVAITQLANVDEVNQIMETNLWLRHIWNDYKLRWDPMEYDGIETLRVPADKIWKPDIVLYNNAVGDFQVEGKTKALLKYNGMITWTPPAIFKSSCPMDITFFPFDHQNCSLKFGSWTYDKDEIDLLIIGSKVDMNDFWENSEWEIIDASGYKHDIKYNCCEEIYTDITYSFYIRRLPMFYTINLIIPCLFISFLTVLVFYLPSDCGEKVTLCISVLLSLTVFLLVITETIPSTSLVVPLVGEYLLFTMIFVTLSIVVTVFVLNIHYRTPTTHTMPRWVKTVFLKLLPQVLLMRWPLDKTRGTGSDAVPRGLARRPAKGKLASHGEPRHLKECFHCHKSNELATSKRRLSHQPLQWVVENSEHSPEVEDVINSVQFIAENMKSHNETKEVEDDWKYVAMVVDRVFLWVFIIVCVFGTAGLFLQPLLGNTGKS
- Sequence (Q05901 25-458 partner limits assumed, one chain of several): as the sequence (Q05901 25-458 partner limits assumed, one chain of several) above
- Procedure Details: Oocyte two-electrode voltage clamp
- Type: cell-based
pEC50: −log10 of the molar value.

| Test Smiles | pEC50 |
| --- | --- |
| CN1CCC[C@H]1c1cccnc1 | 5.31 |

====

- Target Entity: hα6(D199Y) + hβ4 nAChR (Homo sapiens, UniProt P30926+Q15825, D199Y)
- Sequence (Q15825 26-494 D199Y): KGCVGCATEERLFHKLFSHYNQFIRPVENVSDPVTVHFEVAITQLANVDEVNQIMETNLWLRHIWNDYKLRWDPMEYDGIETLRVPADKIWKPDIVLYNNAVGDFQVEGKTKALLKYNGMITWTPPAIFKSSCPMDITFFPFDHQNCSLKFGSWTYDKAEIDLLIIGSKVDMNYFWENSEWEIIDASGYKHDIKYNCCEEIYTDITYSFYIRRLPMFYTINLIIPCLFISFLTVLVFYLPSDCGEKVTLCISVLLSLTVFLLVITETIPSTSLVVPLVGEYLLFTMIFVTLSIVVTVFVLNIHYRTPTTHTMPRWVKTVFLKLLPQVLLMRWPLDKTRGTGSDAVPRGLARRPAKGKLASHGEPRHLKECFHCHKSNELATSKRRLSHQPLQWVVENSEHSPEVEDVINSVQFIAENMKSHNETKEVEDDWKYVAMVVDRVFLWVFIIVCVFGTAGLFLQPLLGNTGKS
- Sequence (P30926 22-498): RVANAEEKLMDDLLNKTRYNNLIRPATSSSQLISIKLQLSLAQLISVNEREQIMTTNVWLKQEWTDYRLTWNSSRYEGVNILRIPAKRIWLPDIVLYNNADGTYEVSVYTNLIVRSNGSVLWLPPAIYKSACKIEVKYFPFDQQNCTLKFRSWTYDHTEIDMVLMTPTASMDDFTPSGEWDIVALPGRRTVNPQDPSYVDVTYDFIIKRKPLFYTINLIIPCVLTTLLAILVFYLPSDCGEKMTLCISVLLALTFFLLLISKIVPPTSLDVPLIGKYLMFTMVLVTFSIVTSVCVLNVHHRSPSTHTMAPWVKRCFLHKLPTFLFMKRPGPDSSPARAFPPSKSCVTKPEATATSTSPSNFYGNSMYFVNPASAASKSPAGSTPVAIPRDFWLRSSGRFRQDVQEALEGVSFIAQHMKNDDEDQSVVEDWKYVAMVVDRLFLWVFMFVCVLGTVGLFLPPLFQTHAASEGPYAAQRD
- Procedure Details: Oocyte two-electrode voltage clamp
pEC50: −log10 of the molar value.

| Compound | pEC50 |
| --- | --- |
| CN1CCC[C@H]1c1cccnc1 [nicotine, L-nicotine] | 5.36 |

====

- Target Entity: hα6(S233C) + hβ4 nAChR (Homo sapiens, UniProt P30926+Q15825, S233C)
- Sequence (Q15825 26-494 S233C, one chain of several): as the sequence (Q15825 26-494 A184D, one chain of several) above, with D159A, S208C counted along it
- Procedure Details: Oocyte two-electrode voltage clamp

| Molecule | Target Entity | EC50, µM |
| --- | --- | --- |
| CN1CCC[C@H]1c1cccnc1 [nicotine, L-nicotine] | hα6(S233C) + hβ4 nAChR (Homo sapiens, UniProt P30926+Q15825, S233C) | 6.2 |

====

- Target Entity: hα6(R96H) + hβ4 + hβ3 nAChR (Homo sapiens, UniProt P30926+Q15825, R96H)
- Construct: Full length capped mRNA (i.e., cRNA) was transcribed from linearized plasmids
- Sequence (Q15825 26-494 R96H, one chain of several): as the sequence (Q15825 26-494 A184D, one chain of several) above, with R71H, D159A counted along it
- Sequence (Q05901 25-458 partner limits assumed, one chain of several): as the sequence (Q05901 25-458 partner limits assumed, one chain of several) above
- Procedure Details: Oocyte two-electrode voltage clamp

| Test Smiles | EC50 |
| --- | --- |
| CN1CCC[C@H]1c1cccnc1 | 8.2 µM |

====

- Target Entity: hα6(A184D) + hβ4 nAChR (Homo sapiens, UniProt P30926+Q15825, A184D)
- Sequence (Q15825 26-494 A184D): as the sequence (Q15825 26-494 D199Y) above, with A159D, Y174D counted along it
- Sequence (P30926 22-498): as the sequence (P30926 22-498) above
- Procedure Details: Oocyte two-electrode voltage clamp
- Procedure: We planned to introduce identical amounts of cRNA, presumably producing equal amounts of each subunit protein, into oocytes largely due to lack of information about the levels of mRNA for each subunits that compose α6*-nAChRs in neurons or other cells. Concentrations of cRNAs for each nAChR α and β subunits (WT, mutant or variant) were adjusted to 500 ng μL^−1. […]
pEC50: −log10 of the molar value.

| Compound | pEC50 |
| --- | --- |
| CN1CCC[C@H]1c1cccnc1 [nicotine, L-nicotine] | 5.57 |
